assay: Cytotoxicity against mouse C2C12 cells assessed as cell viability at 5 uM after 72 hrs by MTT assay relative to control; type: cell-based; conditions: read-out: Activity
measure: viability at 72 h, 5 µM (%)
The reply should be a number in %, with the unit left off.

Briefly, viability at 72 h, 5 µM measured for COc1cccc2c1C(=O)c1c(O)c3c(c(O)c1C2=O)C[C@@](O)(C(=O)CO)C[C@@H]3O[C@H]1C[C@H](N)[C@H](O)[C@H](C)O1 : 28.6

From: ChEMBL document CHEMBL4325891
